Endpoint: Ki. System: Histamine H3 receptor (Homo sapiens, UniProt Q9Y5N1). Items follow.
Sequence (Q9Y5N1 whole entry): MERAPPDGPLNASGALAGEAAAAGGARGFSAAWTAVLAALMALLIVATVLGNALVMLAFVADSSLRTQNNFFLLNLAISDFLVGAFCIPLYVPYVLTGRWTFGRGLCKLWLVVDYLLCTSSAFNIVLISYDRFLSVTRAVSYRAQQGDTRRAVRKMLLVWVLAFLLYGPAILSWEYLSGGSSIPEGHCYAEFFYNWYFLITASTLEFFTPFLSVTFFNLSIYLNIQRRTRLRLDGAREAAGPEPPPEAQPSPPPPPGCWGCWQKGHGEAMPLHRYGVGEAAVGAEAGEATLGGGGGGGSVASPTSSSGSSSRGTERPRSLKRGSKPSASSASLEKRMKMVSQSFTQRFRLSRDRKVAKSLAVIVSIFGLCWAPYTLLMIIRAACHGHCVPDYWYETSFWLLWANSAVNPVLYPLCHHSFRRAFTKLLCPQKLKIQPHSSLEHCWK

Here are 3 molecules. What values of Ki were reported for them?
1. COc1ccccc1N1CCN(Cc2cc(CN(C)C)c3cccccc2-3)CC1
2. COc1ccccc1N1CCN(Cc2cc(CN3CCN(C)CC3)c3cccccc2-3)CC1
3. COc1ccccc1N1CCN(Cc2cc(CN3CCCCC3)c3cccccc2-3)CC1

1: > 10 µM; 2: 5.5 µM; 3: > 10 µM

###

Endpoint: pKi. System: Histamine H2 receptor (Homo sapiens, UniProt P25021). Items follow.
Sequence (P25021 whole entry): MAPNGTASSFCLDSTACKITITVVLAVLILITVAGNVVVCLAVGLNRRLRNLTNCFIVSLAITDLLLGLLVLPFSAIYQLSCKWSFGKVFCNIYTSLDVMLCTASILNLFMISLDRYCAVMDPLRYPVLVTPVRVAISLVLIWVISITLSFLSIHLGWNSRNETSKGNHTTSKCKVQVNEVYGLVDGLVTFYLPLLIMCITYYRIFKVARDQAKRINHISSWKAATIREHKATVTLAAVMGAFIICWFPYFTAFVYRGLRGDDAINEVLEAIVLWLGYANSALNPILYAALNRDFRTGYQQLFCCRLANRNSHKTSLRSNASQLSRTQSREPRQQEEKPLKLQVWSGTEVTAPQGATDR
Give bare numbers, as −log10 of the molar value.

{"Substance Smiles": "COc1ccccc1N1CCN(Cc2cc(CN(C)C)c3cccccc2-3)CC1", "pKi": 5.49}

# evaluate next
Query `COc1ccccc1N1CCN(Cc2cc(CN3CCOCC3)c3cccccc2-3)CC1` yields pKi of 5.21

Attribution: ChEMBL document CHEMBL2203106
